- Tested on: A498 renal
- protocol-notes: NCI tumour cell line growth inhibition, 48 h

compound	unit-abbreviation	relation-symbol	TGI
C1=C2SSC3=CC=C(SSc4ccc(s4)SSC4=CC=C(SSC(=C1)S2)S4)S3	µM	>	100
Cc1ncc([N+](=O)[O-])n1CCN(C)CCCCn1ccnc1[N+](=O)[O-]	µM	>	100
O=C(CC12CC3CC(CC(C3)C1)C2)NCCOCCOCCNC(=O)c1cc2c(o1)C(=O)c1ccccc1C2=O	µM	=	3.16
COc1ccc(-n2c(CCCC(=O)O)nc3c2C(=O)c2ccccc2C3=O)cc1	µM	>	100
O=S(=O)(Nc1ccc(-c2nc(-c3cccc(OCCN4CCOCC4)c3)c(-c3ccnc(Br)c3)[nH]2)cc1)c1ccccc1	µM	=	6.94
COc1ccc2c(c1)C(=O)c1c-2c(NCCCN(C)C)nc2ccccc12	µM	=	23.8
COc1ccc(CN2C(=O)CCC/C=C\[C@H]2CI)cc1	µM	=	25
O=C(NCc1cn(Cc2cccc(Oc3ccccc3)c2)nn1)c1cccnc1Nc1ccccc1	µM	=	8.19
CCCC[C@@H]1NC(=O)[C@H](CCCCN)NC(=O)[C@H](CCCNC(=N)N)NC(=O)[C@H](CC(C)C)NC(=O)[C@@H](NC(=O)[C@H](Cc2cccc(Cl)c2)NC(=O)[C@@H]2CCCN2C(=O)[C@@H](NC(C)=O)C(C)C)CCSSC[C@@H](C(=O)N[C@@H](CCCCN)C(=O)N2CCC[C@H]2C(=O)N2CCC[C@H]2C(=O)N[C@@H](CCC(=O)O)C(N)=O)NC(=O)[C@H](Cc2ccccc2)NC(=O)[C@H](CO)NC(=O)[C@H](C)NC(=O)[C@@H]2CCCN2C1=O	µM	>	50
c1ccc(COc2ccc(C[P+](c3ccccc3)(c3ccccc3)c3ccccc3)cc2)cc1	µM	=	5.51
Cc1cccc(C)c1NC(=O)CCC(=O)NNC(=O)c1cc(O)c2ccccc2c1	µM	=	3.78
COc1ccc2nc3ccc(OC)cc3c(S(=O)Cc3ccc([N+](=O)[O-])cc3)c2c1 (centres undefined)	µM	=	36.3
O=C(O)CSc1n[nH]c(/C=C/c2ccccc2)n1	µM	>	100
CC(NC(=O)c1ccccc1)C(=O)N(Cc1ccccc1)Cc1ccccc1 (centres undefined)	µM	=	89.9
COC(=O)C(=O)C(C(=O)C(=O)Nc1ccccc1C(=O)OC)c1nc2ccc(C(=O)c3ccccc3)cc2[nH]c1=O (centres undefined)	µM	>	100
C[C@]12CC[C@H](O)CC1=CC[C@@H]1[C@@H]2CC[C@]2(C)C(=O)/C(=C/c3cccc(OCCCn4ccnc4)c3)C[C@@H]12	µM	=	39.1
NC1=CN(CCCO)C2=N/C(=C\c3ccco3)C(=O)N12	µM	>	100
O=c1/c(=C/c2cccc3ccccc23)sc2nc3ccccc3n12	µM	>	100
O=C(NO)c1ccc(C(=O)NO)cc1	µM	>	100

====

- System: HCT-15 colon
- protocol-notes: NCI tumour cell line growth inhibition, 48 h
Reported TGI values for a set of molecules

molecule	assay-system	TGI
C=C(NC(=O)C(=C)NC(=O)c1csc(C2=NC3c4csc(n4)C4NC(=O)c5csc(n5)C(C(C)(O)C(C)O)NC(=O)C5CSC(=N5)/C(=C/C)NC(=O)C(C(C)O)NC(=O)c5csc(n5)C3(CC2)NC(=O)C(C)NC(=O)C(=C)NC(=O)C(=C)NC(=O)C(C(C)C)NC2C=Cc3c(C(C)O)cc(nc3C2O)C(=O)OC4C)n1)C(N)=O (configuration not stated)	HCT-15 colon	> 63.4 µM
COc1cc2c(cc1O)[C@H](C)C(c1ccc(Cl)cc1)O2 (some centres not stated)	HCT-15 colon	27.7 µM
CS(=O)(=O)NNS(=O)(=O)c1ccc(Br)cc1	HCT-15 colon	> 100 µM
CC(C)C1CN1CC(O)Cn1ccnc1[N+](=O)[O-] (configuration not stated)	HCT-15 colon	> 100 µM
O=C(CCN1CCCCC1CCO)Nc1ccc2c(c1)C(=O)c1ccc(NC(=O)CCN3CCCCC3CCO)cc1C2=O (configuration not stated)	HCT-15 colon	24.6 µM
N#CC(c1ccc(O)cc1)N1CCN(C(C#N)c2ccc(O)cc2)CC1 (configuration not stated)	HCT-15 colon	> 100 µM
COc1ccc(-c2nc3ncccn3c2-c2ccc(S(C)=O)cc2)cc1 (configuration not stated)	HCT-15 colon	> 100 µM
O=C1Nc2ccc(F)c3c(OCCO)cc(-c4ccc[nH]4)c1c23	HCT-15 colon	7.87 µM
CCc1nc2c(O)ccc(O)c2nc1C	HCT-15 colon	30.6 µM
Cc1cc(N(CCCl)CCCl)ccc1C=Nc1cccnc1	HCT-15 colon	> 100 µM
CCOc1ccc(NC(=O)Nc2cc(C(C)C)ccc2C)cc1	HCT-15 colon	> 100 µM
c1cc(-c2cscc2-c2ccsc2)cs1	HCT-15 colon	> 100 µM
